FYI, the data here is from paper PMC6681697.

Test system: LNCaP xenografts
measurementDescription: Ex vivo biodistribution and blocking studies in mice bearing LNCaP xenografts
conditionLabel: 1 h after injection, unblocked
Rule: Satisfied for muscle uptake not less than 0.2 %ID/g, Not satisfied for anything less.

1. O=C(O)CC[C@H](NC(=O)N[C@@H](CCCCNC(=O)c1ccc(Cn2cc(C[n+]3ccc([B-](F)(F)F)cc3)nn2)nc1)C(=O)O)C(=O)O [^18F-4] :: Satisfied
2. C[N+](C)(Cc1cn(CC(=O)NC[C@H]2CC[C@H](C(=O)N[C@@H](Cc3ccc4ccccc4c3)C(=O)NCCCC[C@H](NC(=O)N[C@@H](CCC(=O)O)C(=O)O)C(=O)O)CC2)nn1)C[B-](F)(F)F [^18F-5] :: Satisfied
3. C[N+](C)(Cc1cn(Cc2ccc(C(=O)NCCCC[C@H](NC(=O)N[C@@H](CCC(=O)O)C(=O)O)C(=O)O)cc2)nn1)C[B-](F)(F)F [^18F-2] :: Satisfied
4. C[N+](C)(Cc1cn(CC(=O)NCCOCCOCCC(=O)N[C@@H](Cc2ccc3ccccc3c2)C(=O)NCCCC[C@H](NC(=O)N[C@@H](CCC(=O)O)C(=O)O)C(=O)O)nn1)C[B-](F)(F)F [^18F-7] :: Not satisfied
5. C[N+](C)(Cc1ccc(C(=O)NCCCC[C@H](NC(=O)N[C@@H](CCC(=O)O)C(=O)O)C(=O)O)cc1)C[B-](F)(F)F [^18F-1] :: Satisfied
6. C[N+](C)(Cc1cn(CC(=O)N[C@@H](CCC(=O)O)C(=O)NCCCC[C@H](NC(=O)[C@H](CCC(=O)O)NC(=O)Cn2cc(C[N+](C)(C)C[B-](F)(F)F)nn2)C(=O)NC[C@H]2CC[C@H](C(=O)N[C@@H](Cc3ccc4ccccc4c3)C(=O)NCCCC[C@H](NC(=O)N[C@@H](CCC(=O)O)C(=O)O)C(=O)O)CC2)nn1)C[B-](F)(F)F [^18F-8] :: Satisfied
7. O=C(O)CC[C@H](NC(=O)N[C@@H](CCCCNC(=O)[C@H](Cc1ccc2ccccc2c1)NC(=O)[C@H]1CC[C@H](CNC(=O)Cn2cc(C[n+]3ccc([B-](F)(F)F)cc3)nn2)CC1)C(=O)O)C(=O)O [^18F-6] :: Not satisfied
8. C[N+](C)(Cc1cn(Cc2ccc(C(=O)NCCCC[C@H](NC(=O)N[C@@H](CCC(=O)O)C(=O)O)C(=O)O)cn2)nn1)C[B-](F)(F)F [^18F-3] :: Not satisfied
9. O=C(O)CCC(NC(=O)NC(CCCCNC(=O)c1ccc([18F])nc1)C(=O)O)C(=O)O (stereo not drawn) [^18F-DCFPyL, reference compound] :: Satisfied

* * *

Test system: LNCaP xenografts
measurementDescription: Ex vivo biodistribution and blocking studies in mice bearing LNCaP xenografts
conditionLabel: LNCaP tumor, 1 h blocked (coinjection of DCFPyL 0.5 mg)
assayMetric: tumor uptake (%ID/g)

1) C[N+](C)(Cc1ccc(C(=O)NCCCC[C@H](NC(=O)N[C@@H](CCC(=O)O)C(=O)O)C(=O)O)cc1)C[B-](F)(F)F [^18F-1] :: 0.33
2) C[N+](C)(Cc1cn(CC(=O)N[C@@H](CCC(=O)O)C(=O)NCCCC[C@H](NC(=O)[C@H](CCC(=O)O)NC(=O)Cn2cc(C[N+](C)(C)C[B-](F)(F)F)nn2)C(=O)NC[C@H]2CC[C@H](C(=O)N[C@@H](Cc3ccc4ccccc4c3)C(=O)NCCCC[C@H](NC(=O)N[C@@H](CCC(=O)O)C(=O)O)C(=O)O)CC2)nn1)C[B-](F)(F)F [^18F-8] :: 0.35
3) C[N+](C)(Cc1cn(Cc2ccc(C(=O)NCCCC[C@H](NC(=O)N[C@@H](CCC(=O)O)C(=O)O)C(=O)O)cc2)nn1)C[B-](F)(F)F [^18F-2] :: 0.27
4) C[N+](C)(Cc1cn(CC(=O)NCCOCCOCCC(=O)N[C@@H](Cc2ccc3ccccc3c2)C(=O)NCCCC[C@H](NC(=O)N[C@@H](CCC(=O)O)C(=O)O)C(=O)O)nn1)C[B-](F)(F)F [^18F-7] :: 0.15
5) C[N+](C)(Cc1cn(CC(=O)NC[C@H]2CC[C@H](C(=O)N[C@@H](Cc3ccc4ccccc4c3)C(=O)NCCCC[C@H](NC(=O)N[C@@H](CCC(=O)O)C(=O)O)C(=O)O)CC2)nn1)C[B-](F)(F)F [^18F-5] :: 0.41

* * *

Reported brain uptake by item:
Tested on: LNCaP xenografts
measurementDescription: Ex vivo biodistribution and blocking studies in mice bearing LNCaP xenografts
conditionLabel: 1 h blocked (coinjection of DCFPyL 0.5 mg)
assayMetric: brain uptake (%ID/g)

1) O=C(O)CC[C@H](NC(=O)N[C@@H](CCCCNC(=O)[C@H](Cc1ccc2ccccc2c1)NC(=O)[C@H]1CC[C@H](CNC(=O)Cn2cc(C[n+]3ccc([B-](F)(F)F)cc3)nn2)CC1)C(=O)O)C(=O)O [^18F-6] :: 0.03
2) C[N+](C)(Cc1cn(CC(=O)N[C@@H](CCC(=O)O)C(=O)NCCCC[C@H](NC(=O)[C@H](CCC(=O)O)NC(=O)Cn2cc(C[N+](C)(C)C[B-](F)(F)F)nn2)C(=O)NC[C@H]2CC[C@H](C(=O)N[C@@H](Cc3ccc4ccccc4c3)C(=O)NCCCC[C@H](NC(=O)N[C@@H](CCC(=O)O)C(=O)O)C(=O)O)CC2)nn1)C[B-](F)(F)F [^18F-8] :: 0.01
3) C[N+](C)(Cc1cn(CC(=O)NCCOCCOCCC(=O)N[C@@H](Cc2ccc3ccccc3c2)C(=O)NCCCC[C@H](NC(=O)N[C@@H](CCC(=O)O)C(=O)O)C(=O)O)nn1)C[B-](F)(F)F [^18F-7] :: 0.01
4) C[N+](C)(Cc1ccc(C(=O)NCCCC[C@H](NC(=O)N[C@@H](CCC(=O)O)C(=O)O)C(=O)O)cc1)C[B-](F)(F)F [^18F-1] :: 0.03
5) C[N+](C)(Cc1cn(CC(=O)NC[C@H]2CC[C@H](C(=O)N[C@@H](Cc3ccc4ccccc4c3)C(=O)NCCCC[C@H](NC(=O)N[C@@H](CCC(=O)O)C(=O)O)C(=O)O)CC2)nn1)C[B-](F)(F)F [^18F-5] :: 0.02

* * *

Test system: LNCaP xenografts
measurementDescription: Ex vivo biodistribution and blocking studies in mice bearing LNCaP xenografts
conditionLabel: 1 h after injection, unblocked
Overview of recorded bone uptake for various molecules
assayMetric: bone uptake

1) C[N+](C)(Cc1cn(CC(=O)NCCOCCOCCC(=O)N[C@@H](Cc2ccc3ccccc3c2)C(=O)NCCCC[C@H](NC(=O)N[C@@H](CCC(=O)O)C(=O)O)C(=O)O)nn1)C[B-](F)(F)F [^18F-7] :: 0.10 ± 0.07 %ID/g
2) C[N+](C)(Cc1ccc(C(=O)NCCCC[C@H](NC(=O)N[C@@H](CCC(=O)O)C(=O)O)C(=O)O)cc1)C[B-](F)(F)F [^18F-1] :: 0.36 ± 0.02 %ID/g
3) C[N+](C)(Cc1cn(Cc2ccc(C(=O)NCCCC[C@H](NC(=O)N[C@@H](CCC(=O)O)C(=O)O)C(=O)O)cc2)nn1)C[B-](F)(F)F [^18F-2] :: 0.44 ± 0.09 %ID/g
4) O=C(O)CCC(NC(=O)NC(CCCCNC(=O)c1ccc([18F])nc1)C(=O)O)C(=O)O (stereo not drawn) [^18F-DCFPyL, reference compound] :: 0.33 ± 0.07 %ID/g
5) C[N+](C)(Cc1cn(Cc2ccc(C(=O)NCCCC[C@H](NC(=O)N[C@@H](CCC(=O)O)C(=O)O)C(=O)O)cn2)nn1)C[B-](F)(F)F [^18F-3] :: 0.20 ± 0.06 %ID/g
6) C[N+](C)(Cc1cn(CC(=O)NC[C@H]2CC[C@H](C(=O)N[C@@H](Cc3ccc4ccccc4c3)C(=O)NCCCC[C@H](NC(=O)N[C@@H](CCC(=O)O)C(=O)O)C(=O)O)CC2)nn1)C[B-](F)(F)F [^18F-5] :: 0.34 ± 0.14 %ID/g

* * *

System: LNCaP xenografts
measurementDescription: Ex vivo biodistribution and blocking studies in mice bearing LNCaP xenografts
conditionLabel: 1 h after injection, unblocked
Reported brain uptake values follow for various molecules
assayMetric: brain uptake (%ID/g)

1) C[N+](C)(Cc1cn(CC(=O)N[C@@H](CCC(=O)O)C(=O)NCCCC[C@H](NC(=O)[C@H](CCC(=O)O)NC(=O)Cn2cc(C[N+](C)(C)C[B-](F)(F)F)nn2)C(=O)NC[C@H]2CC[C@H](C(=O)N[C@@H](Cc3ccc4ccccc4c3)C(=O)NCCCC[C@H](NC(=O)N[C@@H](CCC(=O)O)C(=O)O)C(=O)O)CC2)nn1)C[B-](F)(F)F [^18F-8] :: 0.02
2) C[N+](C)(Cc1cn(CC(=O)NCCOCCOCCC(=O)N[C@@H](Cc2ccc3ccccc3c2)C(=O)NCCCC[C@H](NC(=O)N[C@@H](CCC(=O)O)C(=O)O)C(=O)O)nn1)C[B-](F)(F)F [^18F-7] :: 0.01
3) C[N+](C)(Cc1cn(CC(=O)NC[C@H]2CC[C@H](C(=O)N[C@@H](Cc3ccc4ccccc4c3)C(=O)NCCCC[C@H](NC(=O)N[C@@H](CCC(=O)O)C(=O)O)C(=O)O)CC2)nn1)C[B-](F)(F)F [^18F-5] :: 0.04
4) O=C(O)CCC(NC(=O)NC(CCCCNC(=O)c1ccc([18F])nc1)C(=O)O)C(=O)O (stereo not drawn) [^18F-DCFPyL, reference compound] :: 0.03
5) O=C(O)CC[C@H](NC(=O)N[C@@H](CCCCNC(=O)c1ccc(Cn2cc(C[n+]3ccc([B-](F)(F)F)cc3)nn2)nc1)C(=O)O)C(=O)O [^18F-4] :: 0.05
6) C[N+](C)(Cc1ccc(C(=O)NCCCC[C@H](NC(=O)N[C@@H](CCC(=O)O)C(=O)O)C(=O)O)cc1)C[B-](F)(F)F [^18F-1] :: 0.04
7) O=C(O)CC[C@H](NC(=O)N[C@@H](CCCCNC(=O)[C@H](Cc1ccc2ccccc2c1)NC(=O)[C@H]1CC[C@H](CNC(=O)Cn2cc(C[n+]3ccc([B-](F)(F)F)cc3)nn2)CC1)C(=O)O)C(=O)O [^18F-6] :: 0.03
8) C[N+](C)(Cc1cn(Cc2ccc(C(=O)NCCCC[C@H](NC(=O)N[C@@H](CCC(=O)O)C(=O)O)C(=O)O)cc2)nn1)C[B-](F)(F)F [^18F-2] :: 0.04
9) C[N+](C)(Cc1cn(Cc2ccc(C(=O)NCCCC[C@H](NC(=O)N[C@@H](CCC(=O)O)C(=O)O)C(=O)O)cn2)nn1)C[B-](F)(F)F [^18F-3] :: 0.03
